Values from patent US5322859A

System: Serotonin 1 Receptor
Test: NovaScreen receptor binding, Serotonin 1 Receptor
Conditions: 10^-5 M (10 μM)
endpoint label: % INHIBITION (%)
Number only, in %; omit the unit.

INPUT: Request - read-out % INHIBITION | tested on Serotonin 1 Receptor | compound CN(C)CCc1ccccc1
OUTPUT: 82.3

INPUT: Please tell me: % INHIBITION of CN(CCCc1ccccc1)C1CCCCC1 , system Serotonin 1 Receptor?
OUTPUT: 5.7

INPUT: What is its % INHIBITION for Serotonin 1 Receptor? Entry: CCN(C)Cc1ccccc1
OUTPUT: 17.2

INPUT: Quick check: % INHIBITION on Serotonin 1 Receptor, item CCCCCCN(C)CCc1ccccc1 ?
OUTPUT: 55.0

INPUT: Quick check: % INHIBITION on Serotonin 1 Receptor, item CCN(CCc1ccccc1)C1CCCCC1.Cl ?
OUTPUT: 12.2

###

Target: Serotonin 2 Receptor (Homo sapiens, UniProt P28223)
Sequence (P28223 whole entry): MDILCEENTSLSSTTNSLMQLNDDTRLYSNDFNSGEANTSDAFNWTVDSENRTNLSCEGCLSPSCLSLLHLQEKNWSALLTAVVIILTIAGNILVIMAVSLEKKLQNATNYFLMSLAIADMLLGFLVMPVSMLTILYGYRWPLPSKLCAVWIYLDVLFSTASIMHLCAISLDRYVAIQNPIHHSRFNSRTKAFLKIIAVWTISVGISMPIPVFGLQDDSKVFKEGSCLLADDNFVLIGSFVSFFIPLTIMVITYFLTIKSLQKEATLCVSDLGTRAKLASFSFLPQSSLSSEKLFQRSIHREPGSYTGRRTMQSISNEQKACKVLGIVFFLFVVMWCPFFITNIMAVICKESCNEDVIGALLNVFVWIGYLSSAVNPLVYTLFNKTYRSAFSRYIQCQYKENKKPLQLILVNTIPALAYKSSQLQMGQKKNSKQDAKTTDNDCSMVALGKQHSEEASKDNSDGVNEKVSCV
Experiment: NovaScreen receptor binding, Serotonin 2 Receptor
Settings: 10^-7 M (100 nM)
endpoint label: inhibition at 0.1 µM (%)
Provide only the numeric value, understood in %.

INPUT: Fill in the recorded inhibition at 0.1 µM for this compound, with Serotonin 2 Receptor (Homo sapiens, UniProt P28223) as test system: CCCCCCN(C)CCc1ccccc1
OUTPUT: 9.6

INPUT: Write down the reported inhibition at 0.1 µM of CCN(CCc1ccccc1)C1CCCCC1.Cl [n = 2, R = C2 H5, R' = cyclohexyl, hydrochloride] , test system: Serotonin 2 Receptor (Homo sapiens, UniProt P28223).
OUTPUT: 4.7

INPUT: Lab request: please report inhibition at 0.1 µM under test system Serotonin 2 Receptor (Homo sapiens, UniProt P28223) for CN(CCCc1ccccc1)C1CCCCC1
OUTPUT: -8

INPUT: Reported inhibition at 0.1 µM for Serotonin 2 Receptor (Homo sapiens, UniProt P28223), given CN(C)CCc1ccccc1 ?
OUTPUT: 10.7

###

System: Serotonin 1 Receptor
Test: NovaScreen receptor binding, Serotonin 1 Receptor
Settings: 10^-9 M (1 nM)
Give % INHIBITION for every item shown.
Express it in %; write the number only.

INPUT: Quick check: % INHIBITION of CCN(C)Cc1ccccc1 ?
OUTPUT: 5.7

INPUT: Which measured % INHIBITION value corresponds to CN(C)CCc1ccccc1 ?
OUTPUT: 62.3

INPUT: Bench note: what % INHIBITION did CCN(CCc1ccccc1)C1CCCCC1.Cl show?
OUTPUT: 2.6

INPUT: Entry under review: CN(CCCc1ccccc1)C1CCCCC1 . Reported % INHIBITION?
OUTPUT: -6.3

INPUT: Need % INHIBITION of CCCCCCN(C)CCc1ccccc1 , thanks.
OUTPUT: 10.3

###

System: Alpha 2 Receptor
Assay: NovaScreen receptor binding, Alpha 2 Receptor
Settings: 10^-7 M (100 nM)
Please provide measured % INHIBITION for the entries that follow.
Numeric answer only, unit % assumed.

INPUT: Request - read-out % INHIBITION | tested on Alpha 2 Receptor | compound CN(CCCc1ccccc1)C1CCCCC1 [n = 3, R = methyl, R' = cyclohexyl]
OUTPUT: 9.3

INPUT: Form: Entry = CN(C)CCc1ccccc1 [n = 2, R&R' = CH3, N,N-dimethyl-2-phenylethylamine] | System = Alpha 2 Receptor | % INHIBITION = ____
OUTPUT: 15.3

INPUT: Which measured % INHIBITION belongs to CCCCCCN(C)CCc1ccccc1 [n = 2, R = CH3, R' = n-hexyl] , tested on Alpha 2 Receptor?
OUTPUT: 6.7

INPUT: Form field - read-out: % INHIBITION; system: Alpha 2 Receptor; submitted item: CCN(C)Cc1ccccc1 [n = 1, R = CH3, R' = C2 H5]
OUTPUT: 4.7

###

Kindly supply the reported % INHIBITION values for the records listed here.
Tested on: Alpha 2 Receptor
Assay: NovaScreen receptor binding, Alpha 2 Receptor
Conditions: 10^-5 M (10 μM)
Only the number, expressed in %, is required.

INPUT: Give the measured % INHIBITION of CCCCCCN(C)CCc1ccccc1 .
OUTPUT: 95.7

INPUT: Entry CN(C)CCc1ccccc1 has what % INHIBITION?
OUTPUT: 96.7

INPUT: What does the data say about its % INHIBITION? Entry: CN(CCCc1ccccc1)C1CCCCC1
OUTPUT: 81.0

INPUT: Item CCN(C)Cc1ccccc1 has what recorded % INHIBITION?
OUTPUT: 53.0

###

Would you mind telling me the reported % INHIBITION of each entry?
Tested on: Alpha 2 Receptor
Test: NovaScreen receptor binding, Alpha 2 Receptor
Conditions: 10^-9 M (1 nM)
Field: numeric (%). Do not append units.

INPUT: Item under review: CN(C)CCc1ccccc1 [n = 2, R&R' = CH3, N,N-dimethyl-2-phenylethylamine] . Reported % INHIBITION?
OUTPUT: 8.1

INPUT: I am curious: what % INHIBITION value has been reported for CN(CCCc1ccccc1)C1CCCCC1 [n = 3, R = methyl, R' = cyclohexyl] ?
OUTPUT: 3.3

INPUT: What % INHIBITION value was documented for this compound, CCCCCCN(C)CCc1ccccc1 [n = 2, R = CH3, R' = n-hexyl] ?
OUTPUT: 1.6

INPUT: Value lookup for % INHIBITION; key = CCN(C)Cc1ccccc1 [n = 1, R = CH3, R' = C2 H5]
OUTPUT: 2.2

###

Biological target: Serotonin 2 Receptor (Homo sapiens, UniProt P28223)
Assay: NovaScreen receptor binding, Serotonin 2 Receptor
Details: 10^-5 M (10 μM)
Could you please report measured inhibition at 10 µM for the items listed next?
Report the figure in % without appending any unit label.

INPUT: // lookup inhibition at 10 µM for CN(CCCc1ccccc1)C1CCCCC1 [n = 3, R = methyl, R' = cyclohexyl]
OUTPUT: 82.1

INPUT: Request the reported inhibition at 10 µM associated with CCCCCCN(C)CCc1ccccc1 [n = 2, R = CH3, R' = n-hexyl]
OUTPUT: 92

INPUT: Entry under review: CN(C)CCc1ccccc1 [n = 2, R&R' = CH3, N,N-dimethyl-2-phenylethylamine] . Reported inhibition at 10 µM?
OUTPUT: 46.9

INPUT: Consider the compound CCN(CCc1ccccc1)C1CCCCC1.Cl [n = 2, R = C2 H5, R' = cyclohexyl, hydrochloride] and give its measured inhibition at 10 µM.
OUTPUT: 48.9
